system.name: H3 receptor (Cavia porcellus, UniProt Q9JI35)
Construct: The source of the H3 receptors in this experiment was guinea pig brain; from tissue; host or cells: guinea pig brain membranes
Sequence (Q9JI35 whole entry): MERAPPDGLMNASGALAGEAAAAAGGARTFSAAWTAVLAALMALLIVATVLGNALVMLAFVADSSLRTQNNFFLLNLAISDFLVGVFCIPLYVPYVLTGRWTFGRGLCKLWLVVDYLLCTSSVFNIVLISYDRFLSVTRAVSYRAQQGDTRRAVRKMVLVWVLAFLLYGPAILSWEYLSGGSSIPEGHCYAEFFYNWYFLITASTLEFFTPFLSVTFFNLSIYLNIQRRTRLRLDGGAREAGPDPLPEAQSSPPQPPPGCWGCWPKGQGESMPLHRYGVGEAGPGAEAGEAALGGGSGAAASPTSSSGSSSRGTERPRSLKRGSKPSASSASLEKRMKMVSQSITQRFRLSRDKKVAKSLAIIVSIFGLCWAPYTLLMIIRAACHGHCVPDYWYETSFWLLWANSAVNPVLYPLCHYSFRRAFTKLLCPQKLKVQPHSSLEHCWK
assay.summary: H3 Receptor Binding Assay (guinea pig brain membranes, [3H]R-α-methylhistamine or [3H]-N-methylhistamine)
measurement.conditions: 3 nM radioligand, 30° C., 30 min
property: Ki (nM)

{"compound": "Clc1ccc(CN2CCN(Cc3ccc(Cl)cc3)C(CCc3c[nH]cn3)C2)cc1 (centres unmarked)", "property": "Ki", "uom": "nM", "quantitative.readout": 45}

P = CCOC(=O)C1CN(CCCCc2c[nH]cn2)CCN1Cc1ccc(Cl)cc1 (centres unmarked)
Q = O=C(Nc1ccc(C(F)(F)F)cc1)N1CCN(CCCCc2c[nH]cn2)CC1
R = O=C(Nc1cccc(Cl)c1)N1CCN(CCCCc2c[nH]cn2)CC1
S = CCOC(=O)C1CNCCN1CCCCc1c[nH]cn1 (centres unmarked)
Inquiry: Sort by Ki, descending. The response must list the labels following the requested ordering.
Reply text: P, S, Q, R
(P: 46 nM, S: 32 nM, Q: 14 nM, R: 6 nM)
